Hello, the source for this data is ChEMBL document CHEMBL3632477, in case you need it.

Task for the reader: assign each of the following compounds its reported pEC50.
# experimentalSystem: Glucagon-like peptide 1 receptor (Homo sapiens, UniProt P43220)
# Sequence (P43220 whole entry): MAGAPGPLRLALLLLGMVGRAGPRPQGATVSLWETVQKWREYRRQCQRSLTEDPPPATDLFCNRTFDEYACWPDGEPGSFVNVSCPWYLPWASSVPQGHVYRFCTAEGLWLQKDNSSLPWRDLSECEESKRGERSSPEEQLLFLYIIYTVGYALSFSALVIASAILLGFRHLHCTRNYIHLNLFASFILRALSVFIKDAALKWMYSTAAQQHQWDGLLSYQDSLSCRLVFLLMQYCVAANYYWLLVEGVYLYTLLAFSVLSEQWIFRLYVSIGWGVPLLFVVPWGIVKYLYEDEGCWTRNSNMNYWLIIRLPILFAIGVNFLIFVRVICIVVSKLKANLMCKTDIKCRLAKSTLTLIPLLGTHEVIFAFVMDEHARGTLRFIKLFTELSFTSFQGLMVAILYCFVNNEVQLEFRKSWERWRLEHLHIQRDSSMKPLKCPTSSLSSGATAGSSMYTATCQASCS
# measurementProtocol: Agonist activity at human GLP-1R expressed in CHO-K1 cells assessed as increase in cAMP level incubated for 30 mins
Where a SMILES comes first, the peptide text is derived from it. Bridges are numbered along the chain shown (N, C = ends). [ ]: non-standard residue; d: D form. Bip(2'-Et-4'-OMe) = CCc1cc(OC)ccc1-c1ccc(C[C@H](N)C(=O)O)cc1; αMePhe(2-F) = C[C@](N)(Cc1ccccc1F)C(=O)O; hhPhe = N[C@@H](CCCc1ccccc1)C(=O)O; Aib = CC(C)(N)C(=O)O
pEC50 field: float, defined as -log10 of concentration (mol/L).

Looking up CC(C)C[C@@H]1NC(=O)[C@H](Cc2ccccc2)NC(=O)[C@H](CC(N)=O)NC(=O)[C@H](CCCNC(=N)N)NC(=O)[C@H](CCCCN)NC(=O)[C@@H]2CSSC[C@@H](C(N)=O)NC(=O)[C@H](CSSC[C@H](NC(=O)[C@@H](N)CO)C(=O)N[C@@H](CO)C(=O)N2)NC1=O (H-SCSCKRNFLCC-NH2; disulfide 2-10, 4-11) , I found its pEC50 recorded as 9.33

Looking up CCc1cc(OC)ccc1-c1ccc(C[C@H](NC(=O)[C@H](CS)NC(=O)[C@H](CO)NC(=O)[C@@H](NC(=O)[C@](C)(Cc2ccccc2F)NC(=O)[C@H](CS)NC(=O)CNC(=O)[C@H](CCC(=O)O)NC(=O)C(C)(C)NC(=O)[C@@H](N)Cc2cnc[nH]2)[C@@H](C)O)C(=O)N[C@@H](CCCc2ccccc2)C(N)=O)cc1 (H-H[Aib]EGC[αMePhe(2-F)]TSC[Bip(2'-Et-4'-OMe)][hhPhe]-NH2) , I found its pEC50 recorded as 6.07
